Assay: Binding affinity was measured on Sigma receptor type 1 using [3H]- pentazocine as radioligand
Parameter Measured: log10 of Ki (log10 of the value in µM)

{"columns": ["Compound", "log10 of Ki"],
 "data": [
  ["CC(C)=CCN1CCC2(C)c3c(ccc(O)c3Cl)CC1C2C (stereo not drawn)", -2.58],
  ["CC1C2Cc3ccc(O)c(Br)c3C1(C)CCN2Cc1ccccc1 (stereo not drawn)", -2.76],
  ["CC(C)=CCN1CCC2(C)c3c(ccc(O)c3Br)CC1C2C (stereo not drawn)", -2.60],
  ["CC1C2Cc3ccc(O)c(Cl)c3C1(C)CCN2Cc1ccccc1 (stereo not drawn)", -2.76],
  ["CC1C2Cc3cc(Br)c(O)cc3C1(C)CCN2Cc1ccccc1 (stereo not drawn)", -1.16],
  ["CC(C)=CCN1CCC2(C)c3c(cc(Br)c(O)c3Br)CC1C2C (stereo not drawn)", -0.92],
  ["CC1C2Cc3cc(Cl)c(O)c(Cl)c3C1(C)CCN2Cc1ccccc1 (stereo not drawn)", -1.15],
  ["CC1C2Cc3cc(I)c(O)cc3C1(C)CCN2Cc1ccccc1 (stereo not drawn)", -0.64]
]}

----------
Entries and their Ki
Target: Sigma non-opioid intracellular receptor 1 (Homo sapiens, UniProt Q99720)
Sequence (Q99720 whole entry): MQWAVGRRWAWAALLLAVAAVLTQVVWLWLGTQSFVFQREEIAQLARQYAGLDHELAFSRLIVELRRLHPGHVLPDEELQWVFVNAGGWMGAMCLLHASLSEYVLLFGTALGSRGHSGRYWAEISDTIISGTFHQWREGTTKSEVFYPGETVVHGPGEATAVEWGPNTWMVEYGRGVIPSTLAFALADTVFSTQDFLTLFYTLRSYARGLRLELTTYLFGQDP
Assay: Binding affinity was measured on Sigma receptor type 1 using [3H]- pentazocine as radioligand

{"columns": ["Compound", "Ki / nM"],
 "data": [
  ["CC(C)=CCN1CCC2(C)c3cc(O)c(Br)cc3CC1C2C (configuration not stated)", 144],
  ["CC(C)=CCN1CCC2(C)c3cc(O)c(I)cc3CC1C2C (configuration not stated)", 35.2]
]}

----------
Entries and their pKi
Test: Binding affinity was measured on Sigma receptor type 2 using [3H]- DTG as radioligand
pKi: −log10 of the molar value.
Parameter Measured: pKi

{"columns": ["Compound", "Value Observed"],
 "data": [
  ["CC1C2Cc3ccc(O)c(Br)c3C1(C)CCN2Cc1ccccc1 (centres undefined)", 6.46],
  ["CC(C)=CCN1CCC2(C)c3c(cc(Br)c(O)c3Br)CC1C2C (centres undefined)", 6.68],
  ["CC(C)=CCN1CCC2(C)c3c(ccc(O)c3Cl)CC1C2C (centres undefined)", 5.30],
  ["CC1C2Cc3ccc(O)c(Cl)c3C1(C)CCN2Cc1ccccc1 (centres undefined)", 6.12],
  ["CC1C2Cc3cc(I)c(O)cc3C1(C)CCN2Cc1ccccc1 (centres undefined)", 6.22],
  ["CC(C)=CCN1CCC2(C)c3c(ccc(O)c3Br)CC1C2C (centres undefined)", 6.55],
  ["CC1C2Cc3cc(Br)c(O)c(Br)c3C1(C)CCN2Cc1ccccc1 (centres undefined)", 5.70],
  ["CC1C2Cc3cc(Br)c(O)cc3C1(C)CCN2Cc1ccccc1 (centres undefined)", 5.91],
  ["CC1C2Cc3cc(Cl)c(O)c(Cl)c3C1(C)CCN2Cc1ccccc1 (centres undefined)", 5.66]
]}
